Biological target: MCR-1 (Homo sapiens)
Construct: expressed in transfected cells; host or cells: HEK 293
Test: Melanocortin receptor binding assay, competition with 125I-HP 467, HEK 293 cells expressing hMCR-1
Settings: inhibition of binding of 125I-HP 467, HEK 293 cells expressing MCR-1; read-out: MC-1 IC50
measured_endpoint: IC50 (nM)
Record the value in nM, omitting the unit from your answer.

I'm curious: which IC50 was measured for NCC(CCCCN1Cc2ccccc2C(CNCCc2ccc(O)cc2)C1c1cc(C(F)(F)F)cc(C(F)(F)F)c1)NCc1ccccc1 (stereo not shown) tested on MCR-1 (Homo sapiens)?
2250

What reported IC50 corresponds to CCCOc1ccc(C2C(CN)c3ccccc3CN2CCCC(CN)NCCC2CCCCC2)cc1 (stereo not shown) on MCR-1 (Homo sapiens)?
441

Could you share what IC50 was measured for CCCCNC(CN)CCCN1Cc2ccccc2C(CNC2CCCCC2)C1c1ccc(NCC)cc1 (stereo not shown) , tested on MCR-1 (Homo sapiens)?
90

Checklist item: IC50 tested on MCR-1 (Homo sapiens), entry COc1ccc(CNC(CN)CCCCN2Cc3ccccc3C(CNCCc3ccccc3)C2c2cccc(C(F)(F)F)c2)cc1 (stereo not shown) , value?
2150

###

Molecular target: UniProt Q01726
Experiment: cAMP assay for melanocortin receptors, HEK 293 cells expressing MCR-1
Conditions: 50% of maximal cAMP production, read-out: MC-1 EC50 (cAMP)
pEC50: −log10 of the molar value.
Param threshold (5) applies to pEC50; output true when value >= threshold, false when value < threshold.

Hi team, for CNC(CN)CN1Cc2ccccc2C(CNC2CCCCC2)C1c1ccc(O)cc1 (centres unmarked) , is the recorded pEC50 at or above 5?
false

Has CCCCNc1ccc(C2C(CNCc3ccccc3O)c3ccccc3CN2CCCCC(CN)NC)cc1 (centres unmarked) a recorded pEC50 greater than or equal to 5?
true

Does the reported pEC50 for CCNc1ccc(C2C(CNCc3ccccc3O)c3ccccc3CN2CCCC(CN)NCCc2ccccc2)cc1 (centres unmarked) fall at or above the 5 mark?
true

Determine whether this molecule has pEC50 no lower than 5: CCNc1ccc(C2C(CNC3CCCCC3)c3ccccc3CN2CCCCC(CN)NC)cc1 (centres unmarked) [TRG 2408-30]
true

Textbook exercise: given the entry CNC(CN)CCCCN1Cc2ccccc2C(CNC2CCCCC2)C1c1ccc(N(C)C)cc1 (centres unmarked) , state whether its pEC50 is greater than or equal to 5.
false

Decide: is the reported value of pEC50 for CNC(CN)CCCCN1Cc2ccccc2C(CNC2CCCCC2)C1c1ccc2cccc(O)c2n1 (centres unmarked) equal to or greater than 5?
false

Decide: is the reported value of pEC50 for CNC(CN)CCCCN1Cc2ccccc2C(CNC2CCCCC2)C1c1ccc(C(F)(F)F)cc1 (centres unmarked) equal to or greater than 5?
false

###

Molecular target: MCR-1 (Homo sapiens, UniProt Q01726)
Construct: expressed in transfected cells; host or cells: HEK 293
Sequence (Q01726 whole entry): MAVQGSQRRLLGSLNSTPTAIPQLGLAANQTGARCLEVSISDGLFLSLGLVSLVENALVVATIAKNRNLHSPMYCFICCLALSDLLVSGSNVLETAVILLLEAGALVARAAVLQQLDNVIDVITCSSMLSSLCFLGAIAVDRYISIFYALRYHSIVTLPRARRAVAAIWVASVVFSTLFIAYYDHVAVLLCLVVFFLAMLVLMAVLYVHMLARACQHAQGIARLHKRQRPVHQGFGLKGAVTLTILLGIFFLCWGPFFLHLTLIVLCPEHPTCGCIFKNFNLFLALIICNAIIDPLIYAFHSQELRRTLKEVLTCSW
Experiment: Melanocortin receptor binding assay, competition with 125I-HP 467, HEK 293 cells expressing hMCR-1
Settings: competition with 125I-HP 467, HEK 293 cells expressing MCR-1; read-out: MC-1 IC50
measured_endpoint: pIC50
Expect pIC50 as a plain number equal to -log10 of the molar concentration.

Could you share which pIC50 value was measured for CCCCNc1ccc(C2C(CN)c3ccccc3CN2CCCCC(CN)NCCc2ccc(OC)cc2)cc1 (stereo not drawn) ?
6.43

So what does the record say about pIC50 for CCCCNc1ccc(C2C(CN)c3ccccc3CN2CCCC(CN)NCCc2ccc3ccccc3c2)cc1 (stereo not drawn) ?
6.77

Field request: pIC50 | item: NCC(CCCCN1Cc2ccccc2C(CNC2CCCCC2)C1c1ccc(-c2ccccc2)cc1)NCC1CCCCC1 (stereo not drawn)
6.57

Need pIC50, item CNC(CNC(CN)CCCN1Cc2ccccc2C(CNCCc2ccccc2)C1c1ccc(-c2ccccc2)cc1)Cc1ccccc1 (stereo not drawn)
5.97

Quick one: pIC50 of CNC(CN)CCCCN1Cc2ccccc2C(CNC2CCCCC2)C1c1ccc(NCC2CCCCC2)cc1 (stereo not drawn) ?
5.78

Data request, read-out pIC50, for CCCCNc1ccc(C2C(CN)c3ccccc3CN2CCCC(CN)NCCc2ccc(Br)cc2)cc1 (stereo not drawn)
6.92

For CNC(C)CNC(CN)CCCCN1Cc2ccccc2C(CN)C1c1ccc(-c2ccccc2)cc1 (mixture of isomers) , what is its reported pIC50?
6.25

Data request, read-out pIC50, for CCCCNC(CN)CCCN1Cc2ccccc2C(CNC2CCCCC2)C1c1ccc(-c2ccccc2)cc1 (stereo not drawn)
5.84

Could you tell me which pIC50 is on file for CCNc1ccc(C2C(CN)c3ccccc3CN2CCCCC(CN)NCc2ccc(Cl)cc2)cc1 (stereo not drawn) ?
6.68

I am curious: what pIC50 value has been reported for CCNc1ccc(C2C(CN)c3ccccc3CN2CCCCC(CN)NCCc2ccccc2)cc1 (stereo not drawn) ?
6.62

Endpoint output: pIC50 of CCNC(CN)CCCN1Cc2ccccc2C(CN)C1c1ccc(-c2ccccc2)cc1 (stereo not drawn) . Value?
5.90

What does the record list as pIC50 for CCCCNc1ccc(C2C(CNCCc3ccccc3)c3ccccc3CN2CCCCC(CN)NCCc2ccc(OC)cc2)cc1 (mixture of isomers) ?
6.43

Reported pIC50, molecule CCCCNc1ccc(C2C(CNC3CCCCC3)c3ccccc3CN2CCCCC(CN)NCCc2ccccc2)cc1 (stereo not drawn) : ____
6.60

Can you look up the measured pIC50 of NCC(CCCN1Cc2ccccc2C(CN)C1c1ccc(-c2ccccc2)cc1)NCCc1ccccc1 (stereo not drawn) for me?
5.84

What pIC50 value was documented for this molecule, CCNc1ccc(C2C(CNCCc3ccccc3)c3ccccc3CN2CCCCC(CN)NCCc2ccccc2)cc1 (stereo not drawn) ?
6.72
